Provenance of the data: PubChem BioAssay (Tox21)

- test_details: qHTS RealTime-Glo MT Cell Viability Assay in HepG2 cells - 8 hour (AID 1224873); further: nearly all actives have a fitted effect of over 55% in size
- condition_label: RealTime-Glo luminescence; series mostly up to 76.8 µM
Results filed as inconclusive are left out. Calls of active or inactive are those of the source. The call rests on the fitted dose curve; in most records, active means well fitted cell-killing curve with a large enough effect in the repeat runs; inconclusive means weak or mixed curves; inactive means flat fitted curve, though single readings scatter.
reported_property: viability change, negative = cytotoxic

# annotated cases, reported viability change, negative = cytotoxic shown
> print(dat)
                                   molecule    result
1  Nc1ccn([C@@H]2O[C@H](CO)[C@@H](O)C2(F)F)c(=O)n1  inactive
2  C=COC(=O)C(C)(CC)CCC(C)C (stereo unspecified)  inactive
3                      CCCCCCCCCCCCCCC(=O)O  inactive
4                                Nc1ccncc1N  inactive
5                         Cc1coc2ccccc2c1=O  inactive
6                            CC(=O)c1cnccn1  inactive
7                     CC(C)C(=O)OC(=O)C(C)C  inactive
8             O=C1c2ccccc2C(=O)c2cc(O)ccc21  inactive

Look up viability change, negative = cytotoxic for the entries below, preserving their order.
1. CC(=O)NC(=O)c1ccccc1O
2. CNCC(O)c1ccc(O)c(O)c1 (stereo unspecified)
3. Clc1cc(Cl)cc(Cl)c1
4. CCOC(=O)OC(C)OC1=C(C(=O)Nc2ccccn2)N(C)S(=O)(=O)c2ccccc21 (stereo unspecified)
5. Cc1ccc(-c2ncc(Cl)cc2-c2ccc(S(C)(=O)=O)cc2)cn1

1: inactive; 2: inactive; 3: inactive; 4: inactive; 5: inactive

====

- study_system: Cytochrome P450 2D6 (Homo sapiens)
- test_details: Cytochrome P450 Family 2 Subfamily D Member 6 (CYP2D6) small molecule antagonists: luciferase reporter qHTS assay (AID 1671196); further: nearly all actives have a fitted effect of over 50% in size
- condition_label: P450-Glo CYP2D6 enzyme assay, luciferin luminescence, 1 h; series mostly up to 115 µM
Inconclusive results are not listed. The source made the active and inactive calls. Calls follow the shape of the dose curve; as a rule, active = well fitted inhibition curve with a large enough effect in the repeat runs; inconclusive = weak or mixed curves; inactive = no such curve, though single readings can be large or run the other way.
Just give me one of these, please: 1 = active, 0 = inactive

Some solved entries appear below for comparison.
> print(dat)
                                   compound                        study.system  classification
1                        CN(C)CCN(C)CCN(C)C  Cytochrome P450 2D6 (Homo sapiens)               0
2  CC(=O)OCC(=O)[C@@]1(O)[C@H](C)C[C@H]2[C@@H]3CCC4=CC(=O)C=C[C@]4(C)[C@@]3(F)[C@@H](O)C[C@@]21C  Cytochrome P450 2D6 (Homo sapiens)               0
3  CCN1C=CN(C)C1C (configuration not stated)  Cytochrome P450 2D6 (Homo sapiens)               0
4        CC1(C)[C@@H]2CC[C@@]1(C)[C@H](O)C2  Cytochrome P450 2D6 (Homo sapiens)               0
5                               CC(C)(N)C#N  Cytochrome P450 2D6 (Homo sapiens)               0
6  COc1ccnc(CS(=O)c2nc3cc(OC(F)F)ccc3[nH]2)c1OC (configuration not stated)  Cytochrome P450 2D6 (Homo sapiens)               1
7     N[C@H](C(=O)O)[C@@H](O)c1ccc(O)c(O)c1  Cytochrome P450 2D6 (Homo sapiens)               0
8      O=S(=O)(O)c1cc(O)c(O)c(S(=O)(=O)O)c1  Cytochrome P450 2D6 (Homo sapiens)               0

Which outcome was assigned to `CC(C)(C)C(=O)c1ccccc1` in this test?
0

Which outcome was assigned to Nc1ccn([C@@H]2O[C@H](CO)[C@@H](O)C2O)c(=O)n1 (some centres not stated) in this test?
0

Which outcome was assigned to CC(C#N)(CCC(=O)O)N=NC(C)(C#N)CCC(=O)O (configuration not stated) in this test?
0

Which outcome was assigned to `CC(=O)N[C@H]1[C@H]([C@H](O)[C@H](O)CO)OC(C(=O)O)=C[C@@H]1N=C(N)N` in this test?
0

Which outcome was assigned to `CC(C)COC(=O)c1ccc(N)cc1` in this test?
0

Which outcome was assigned to `CC[N+](C)(CC)CCOC(=O)C1c2ccccc2Oc2ccccc21` in this test?
1

Which outcome was assigned to `CCCCCCC#CC(=O)OC` in this test?
0

Which outcome was assigned to `CO[Si](C)(OC)c1ccccc1` in this test?
0

Which outcome was assigned to COc1ccccc1OCC1CNC(=O)O1 (configuration not stated) in this test?
0

Which outcome was assigned to CCC1C(=O)OCC1Cc1cncn1C (configuration not stated) in this test?
0

Which outcome was assigned to CC1=CCC(O)(C(C)C)CC1 (configuration not stated) in this test?
0
